// data source = patent US20130273029A1

# System: Human HER3, endogenous, on human cancer cell lines (SK-Br-3, MCF7, BT-474) (human, UniProt P21860 20-1342)
# Sequence (P21860 20-1342): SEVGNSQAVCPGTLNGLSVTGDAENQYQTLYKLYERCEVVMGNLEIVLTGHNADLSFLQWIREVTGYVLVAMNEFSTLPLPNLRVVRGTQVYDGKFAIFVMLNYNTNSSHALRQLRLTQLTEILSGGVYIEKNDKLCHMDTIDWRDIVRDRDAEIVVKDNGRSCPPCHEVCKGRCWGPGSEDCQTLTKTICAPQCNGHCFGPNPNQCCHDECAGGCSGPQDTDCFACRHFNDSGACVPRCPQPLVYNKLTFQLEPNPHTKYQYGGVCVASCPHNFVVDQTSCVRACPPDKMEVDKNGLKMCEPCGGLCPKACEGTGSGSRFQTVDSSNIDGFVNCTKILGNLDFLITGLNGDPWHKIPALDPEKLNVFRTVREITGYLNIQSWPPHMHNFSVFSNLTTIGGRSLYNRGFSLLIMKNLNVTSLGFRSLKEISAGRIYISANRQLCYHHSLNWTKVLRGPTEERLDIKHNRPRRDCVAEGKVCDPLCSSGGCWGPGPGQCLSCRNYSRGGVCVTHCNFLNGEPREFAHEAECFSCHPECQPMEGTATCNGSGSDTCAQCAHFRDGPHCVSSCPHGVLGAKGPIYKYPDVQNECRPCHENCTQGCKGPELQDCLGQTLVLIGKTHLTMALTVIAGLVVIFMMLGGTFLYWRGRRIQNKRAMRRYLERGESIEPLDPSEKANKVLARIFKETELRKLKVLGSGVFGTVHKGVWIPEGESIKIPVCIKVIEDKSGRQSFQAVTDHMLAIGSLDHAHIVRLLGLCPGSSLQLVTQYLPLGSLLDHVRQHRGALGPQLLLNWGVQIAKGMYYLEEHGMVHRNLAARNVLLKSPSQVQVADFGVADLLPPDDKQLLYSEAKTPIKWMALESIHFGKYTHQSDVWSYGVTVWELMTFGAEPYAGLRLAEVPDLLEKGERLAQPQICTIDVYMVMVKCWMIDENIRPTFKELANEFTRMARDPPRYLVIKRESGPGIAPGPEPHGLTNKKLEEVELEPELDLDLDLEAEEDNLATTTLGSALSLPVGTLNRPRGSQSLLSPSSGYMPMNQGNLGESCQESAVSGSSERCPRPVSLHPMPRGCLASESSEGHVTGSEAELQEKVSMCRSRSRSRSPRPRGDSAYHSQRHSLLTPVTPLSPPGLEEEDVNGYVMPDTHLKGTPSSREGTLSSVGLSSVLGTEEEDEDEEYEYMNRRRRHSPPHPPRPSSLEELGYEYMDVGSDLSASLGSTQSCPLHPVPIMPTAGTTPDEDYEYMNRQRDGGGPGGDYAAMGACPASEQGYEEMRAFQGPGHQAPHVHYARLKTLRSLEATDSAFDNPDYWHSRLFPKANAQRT
# Protocol summary: cell-based or functional assay
Note that class boundaries on MCF7 pHER3 IC50 are class 1: < 300 pM; class 2: ≥ 300 pM and < 400 pM; class 3: ≥ 400 pM

MOR13759 (antibody, human IgG1, kappa, V domains shown, tested as IgG) VH: QVQLVQSGAEVKKPGESLKISCKGSGYSFTTTWVAWVRQMPGKGLEWMGIIYPGLSDTIYSPSFQGQVTISADKSISTAYLQWSSLKASDTAMYYCARVHIIQPPSAWSYNAMDVWGQGTLVTVSS VL: DIQMTQSPSSLSASVGDRVTITCRASQSISTYLNWYQQKPGKAPKLLIFGASNLQSGVPSRFSGSGSGTDFTLTISSLQPEDFATYYCQQSITELFTFGQGTKVEIKR; class 1
MOR14536 (antibody, human IgG1, kappa, V domains shown, tested as IgG) VH: EVQLVQSGAEVKKPGESLKISCKGSGYSFSNYWIAWVRQMPGKGLEWMGIIYPGQSDTIYSPSFQGQVTISADKSISTAYLQWSSLKASDTAMYYCARVHIIQPPSAWSYNAMDVWGQGTLVTVSS VL: DIQMTQSPSSLSASVGDRVTITCRASQSISTYLNWYQQKPGKAPKLLIYGASNLQSGVPSRFSGSGSGTDFTLTISSLQPEDFATYYCQQSITELFTFGQGTKVEIKR; class 2
MOR12925 (antibody, human IgG1, kappa, V domains shown, tested as IgG) VH: QVQLVQSGAEVKKPGESLKISCKGSGYSFSNYWIAWVRQMPGKGLEWMGIIYPGNSDTIYSPSFQGQVTISADKSISTAYLQWSSLKASDTAMYYCARVHIIQPPSAWSYNAMDVWGQGTLVTVSS VL: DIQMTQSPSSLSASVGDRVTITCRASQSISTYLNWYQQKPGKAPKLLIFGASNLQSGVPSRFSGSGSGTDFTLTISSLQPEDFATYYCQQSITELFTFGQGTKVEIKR; class 2
MOR13870 (antibody, human IgG1, kappa, V domains shown, tested as IgG) VH: QVQLVQSGAEVKKPGESLKISCKGSGYSFSNYWIAWVRQMPGKGLEWMGIIYPGTSDTIYSPSFQGQVTISADKSISTAYLQWSSLKASDTAMYYCARVHIIQPPSAWSYNAMDVWGQGTLVTVSS VL: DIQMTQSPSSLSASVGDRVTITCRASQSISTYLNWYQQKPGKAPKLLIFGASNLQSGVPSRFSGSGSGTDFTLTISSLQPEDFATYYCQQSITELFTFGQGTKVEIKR; class 1
MOR13871 (antibody, human IgG1, kappa, V domains shown, tested as IgG) VH: QVQLVQSGAEVKKPGESLKISCKGSGYSFSNYWIAWVRQMPGKGLEWMGIIYPGSSDTIYSPSFQGQVTISADKSISTAYLQWSSLKASDTAMYYCARVHIIQPPSAWSYNAMDVWGQGTLVTVSS VL: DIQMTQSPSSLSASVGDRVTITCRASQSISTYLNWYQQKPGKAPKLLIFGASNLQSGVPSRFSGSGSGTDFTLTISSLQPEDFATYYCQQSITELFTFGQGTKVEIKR; class 1
MOR13766 (antibody, human IgG1, kappa, V domains shown, tested as IgG) VH: QVQLVQSGAEVKKPGESLKISCKGSGYSFTTTWVAWVRQMPGKGLEWMGIIYPGSSDTIYSPSFQGQVTISADKSISTAYLQWSSLKASDTAMYYCARVHIIQPPSAWSYNAMDVWGQGTLVTVSS VL: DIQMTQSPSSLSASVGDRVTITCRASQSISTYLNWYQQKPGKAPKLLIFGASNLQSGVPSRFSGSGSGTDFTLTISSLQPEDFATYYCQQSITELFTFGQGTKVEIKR; class 2
MOR13867 (antibody, human IgG1, kappa, V domains shown, tested as IgG) VH: QVQLVQSGAEVKKPGESLKISCKGSGYSFSNYWIAWVRQMPGKGLEWMGIIYPGQSDTIYSPSFQGQVTISADKSISTAYLQWSSLKASDTAMYYCARVHIIQPPSAWSYNAMDVWGQGTLVTVSS VL: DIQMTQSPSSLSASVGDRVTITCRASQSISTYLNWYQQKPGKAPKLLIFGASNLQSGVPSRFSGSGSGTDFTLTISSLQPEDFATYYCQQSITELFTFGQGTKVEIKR; class 1
MOR12924 (antibody, human IgG1, kappa, V domains shown) VH: QVQLVQSGAEVKKPGESLKISCKGSGYSFTNSWVAWVRQMPGKGLEWMGIIYPGNSDTIYSPSFQGQVTISADKSISTAYLQWSSLKASDTAMYYCARVHIIQPPSAWSYNAMDVWGQGTLVTVSS VL: DIQMTQSPSSLSASVGDRVTITCRASQSISTYLNWYQQKPGKAPKLLIFGASNLQSGVPSRFSGSGSGTDFTLTISSLQPEDFATYYCQQSVWEPATFGQGTKVEIKR; class 3
MOR12510 (antibody, human IgG1, kappa, V domains shown, tested as IgG) VH: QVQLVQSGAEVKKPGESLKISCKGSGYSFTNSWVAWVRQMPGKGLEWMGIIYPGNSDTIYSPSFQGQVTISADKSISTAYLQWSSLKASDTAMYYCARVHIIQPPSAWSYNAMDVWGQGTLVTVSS VL: DIQMTQSPSSLSASVGDRVTITCRASQSISTYLNWYQQKPGKAPKLLIFGASNLQSGVPSRFSGSGSGTDFTLTISSLQPEDFATYYCQQDIDEPWTFGQGTKVEIKR; class 3
